TEST_PROTOCOL: Wnt3a reporter signal inhibition, confirmation, counter-screen for Gli-SUFU antagonist project, Wnt-LIGHT cells, luminescence, single concentration (AID 651995)
APPLIED_CONDITIONS: Wnt3a-driven luciferase reporter, at 6.25 µM, stronger effect = higher value
In all, about 2,500 compounds went through this assay and about 480 (19%) were called active. The list is a sample of the results.
MEASUREMENT_KIND: inhibition (%)
Give just the number in %; leave the unit off.

Give recorded inhibition. COc1cccc(-n2cc(C(=O)O)c3ccccc3c2=O)c1
20.7

Kindly indicate its recorded inhibition. Item: Cc1cc([N+](=O)[O-])c(-c2ccc(/C=N/n3cnnc3)o2)cc1Cl
-8.22

Give a short answer stating reported inhibition for O=C(O)CCCn1cc(NC(=O)COc2cccc(Cl)c2)cn1 .
6.24

Please give measured inhibition of the following entry: CCCOc1ccc(Cc2c(Cl)nc(SC)nc2NC)cc1
26.9

Quick one: give measured inhibition for COc1ccc(OC)c(Cc2cnc3nc(N)nc(N)c3c2C)c1
14.4

Give the measured inhibition for CN(NC(=O)c1ccccc1F)c1nc(C(F)(F)F)nc2ccccc12
-20

Fill in inhibition for record Brc1c(CSc2nncc3ccccc23)nc2ccccn12
1.67

Consider the compound O=C1C=C(c2ccnc3cc(Cl)ccc23)C[C@@H](c2ccc3c(c2)OCO3)C1 . State its measured inhibition.
27.6

Specify measured inhibition for CN(C)CCSc1nc(N)c2c3c(sc2n1)COC(C)(C)C3 .
-37.2

Answer with the recorded inhibition for the compound listed here: CCN(CCO)C(=S)Nc1cc(C(=O)OC)ccc1C(=O)OC
-4.1

Report inhibition, nothing else, for this compound: Cc1cccc2nc(CSc3nc4[nH]ncc4c(=O)n3-c3cccc(Cl)c3)cc(=O)n12
33.2

Look up and state reported inhibition for Cc1ccccc1C(=O)NC(=S)Nc1ccc(N2CCN(C(=O)c3ccccc3)CC2)cc1
41.2

Using the record for CCN1/C(=C/C(=S)Nc2ccccc2)Sc2ccccc21 , state its measured inhibition.
-77.3

Note down inhibition recorded for CCc1c(C)nc2cc(C)[nH]n2c1=O
-9.69

Give the reported value of inhibition for this record: Cc1c(Cl)c([N+](=O)[O-])nn1Cc1ccc(C(=O)N/N=C\c2cc(Cl)ccc2O)o1
61.7

Find the measured inhibition of O=[N+]([O-])c1ccc(N2CCN(CC(O)COc3ccccc3)CC2)cc1 (centres undefined) and report it.
-30.2

Return inhibition (reported value) for this compound: CCOc1ccc(-n2c(O)c(/C=N/c3ccnn3Cc3ccncc3)c3ccccc3c2=O)cc1
-8.8

Assign inhibition to the following record: COc1cc(C(=O)OC2CCOC2=O)c([N+](=O)[O-])cc1OC (centres undefined)
1.38

Fill in reported inhibition for this entry: C=CCn1c(SCC(=O)CC(=O)OCC)nc2cc(C(=O)N3CCC(C(N)=O)CC3)ccc2c1=O
-31.2

Name the recorded inhibition of the compound listed here: Cc1ccc(-c2nc(CSCC(=O)NC3CCN(Cc4ccccc4)CC3)c(C)o2)cc1
-19.9

Give a short answer stating reported inhibition for Cc1ccc(Nc2nc(N3CCOCC3)nc(N3CCOCC3)n2)cc1Cl .
-104

Dear colleague, please send me the reported inhibition for O=C(Nc1ccnn1C1CCN(C/C=C/c2ccc(F)cc2)CC1)C1CCCC1 when you can.
-63.4

Fill in inhibition for record CCc1ccc(C2C(C#N)=C(N)N(N3CCOCC3)C3=C2C(=O)CC(C)(C)C3)s1 (centres undefined)
-28.8

Provide one value: measured inhibition of COc1ccc(C(=O)NCc2nnc(SCCOc3ccccc3)n2C)cc1
-33.1

Provide measured inhibition value, entry: COc1ccccc1C1C2=C(COC2=O)Nc2cc3c(cc21)OCO3 (centres undefined)
-30.9

Answer with the recorded inhibition of CN1C(CC(=O)Nc2ccc(Br)cc2)c2ccccc2CC1(C)C (centres undefined) only.
-37.9

Give a short answer stating reported inhibition for O=C(c1cc(Cl)cc(Cl)c1)N1CCC(=O)N(C(COCc2ccccc2)Cc2ccccc2)CC1 (centres undefined) .
-8.85

In one line, give reported inhibition of the entry Cc1cc(NC(=O)c2cccc(N3C(=O)CCC3=O)c2)no1 .
66

Provide inhibition value for the following compound: COC(=O)Cc1[nH]n(-c2nc3ccccc3s2)c(=O)c1C(C)=Nc1ccc(OC)cc1
104

// Input: CC1CC2=C(CC1/C=N/NC(N)=S)C(C)(C)CCC2 (centres undefined) . Output its inhibition only.
21.2

Tell me its inhibition given COC(=O)c1ccccc1NC(=O)C1(S(=O)(=O)c2ccc(Cl)cc2)CC1 as the entry.
-1.78

Input CCn1c(SCc2ccccc2)nc2cc(OC)c(OC)cc2c1=O , output reported inhibition.
-22.5

Complete the entry with inhibition for O=C(O)c1ccc(N/N=C/c2ccc3ncccc3c2)cc1
95

Complete the entry with inhibition for Cc1cc(C(=O)CSc2nc(N)cc(=O)[nH]2)c(C)n1-c1cccc(F)c1
-15.5
